biological target: PDE1A (Homo sapiens (Human), UniProt P54750); assay: biochemical; assay type: biochemical; conditions: 15 nM tritium labelled cAMP, 1 hr at room temperature, SPA beads
Sequence (P54750 whole entry): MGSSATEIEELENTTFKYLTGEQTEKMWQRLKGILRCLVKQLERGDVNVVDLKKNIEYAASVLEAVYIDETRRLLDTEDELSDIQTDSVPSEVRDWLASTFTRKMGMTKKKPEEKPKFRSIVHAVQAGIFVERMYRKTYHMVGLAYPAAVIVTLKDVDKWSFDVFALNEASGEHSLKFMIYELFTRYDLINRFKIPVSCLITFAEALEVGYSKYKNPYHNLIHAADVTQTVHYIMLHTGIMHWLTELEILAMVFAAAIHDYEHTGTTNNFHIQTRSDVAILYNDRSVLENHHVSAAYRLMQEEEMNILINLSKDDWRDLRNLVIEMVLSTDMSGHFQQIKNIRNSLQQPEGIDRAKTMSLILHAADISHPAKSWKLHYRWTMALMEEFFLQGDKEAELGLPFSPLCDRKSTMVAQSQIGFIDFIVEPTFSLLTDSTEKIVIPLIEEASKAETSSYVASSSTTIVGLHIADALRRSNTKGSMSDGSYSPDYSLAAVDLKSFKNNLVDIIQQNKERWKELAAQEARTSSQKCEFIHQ
QUANTITY: pIC50
Give bare numbers, as −log10 of the molar value.

Some solved cases for reference:
>  <MOLECULE>
CCOc1ncccc1-c1cc(NCc2ccnc(C)c2)c2c(n1)c(C)nn2C(C)C

>  <QUANTITY>
pIC50

>  <NUMBER>
8.27

$$$$
>  <MOLECULE>
CCOc1ncccc1-c1cc(NCc2ccc(C(F)F)nc2)c2c(n1)c(C)nn2C(C)C

>  <QUANTITY>
pIC50

>  <NUMBER>
7.74

$$$$
>  <MOLECULE>
CCOc1ncccc1-c1cc(NCc2cn[nH]c2)c2c(n1)c(C)nn2C(C)C

>  <QUANTITY>
pIC50

>  <NUMBER>
7.68

$$$$
>  <MOLECULE>
Cc1nn(C(C)C)c2c(NCc3cnn(C)c3)cc(-c3nncn3C)nc12

>  <QUANTITY>
pIC50

>  <NUMBER>
6.39

$$$$

Please supply pIC50 for each of the following items, keeping them in order.
1. Cc1csc(-c2cc(NCc3cnn(C)c3)c3c(n2)c(C)nn3C(C)C)n1
2. Cc1nn(C(C)C)c2c(NCc3cnn(C)c3)cc(N3CCC3=O)nc12

7.54
7.32

====

target: PDE1A (Homo sapiens (Human)); experiment: biochemical; format: biochemical; settings: 15 nM tritium labelled cAMP, 1 hr at room temperature, SPA beads
Please provide measured IC50 for the entries that follow.
Answers are plain numbers, in nM.

>  <COMPOUND>
CCOc1ncccc1-c1cc(NCc2coc(C)n2)c2c(n1)c(C)nn2C(C)C

>  <UNIT_STRING>
nM

>  <IC50>
5.9

$$$$
>  <COMPOUND>
CCOc1ncccc1-c1cc(NCc2cc(C)n(C)n2)c2c(cnn2C(C)C)n1

>  <UNIT_STRING>
nM

>  <IC50>
19

$$$$
>  <COMPOUND>
Cc1nn(C(C)C)c2c(NCc3cnn(C)c3)cc(N3CC(C)OC3=O)nc12 (stereo not drawn)

>  <UNIT_STRING>
nM

>  <IC50>
44

$$$$
>  <COMPOUND>
CCOc1ncccc1-c1cc(NCc2cnn(C)c2)c2c(cnn2C(C)C)n1

>  <UNIT_STRING>
nM

>  <IC50>
56

$$$$
>  <COMPOUND>
CCOc1ncccc1-c1cc(NCc2nccc(OC)n2)c2c(n1)c(C)nn2C(C)C

>  <UNIT_STRING>
nM

>  <IC50>
3.9

$$$$

Please supply IC50 for each of the following items, keeping them in order.
1. CCOc1ncccc1-c1cc(NCc2cc[nH]n2)c2c(n1)c(C)nn2C(C)C
2. CCOc1ncccc1-c1cc(NCc2nncn2C)c2c(n1)c(C)nn2C(C)C
3. Cc1nn(C(C)C)c2c(NCc3cnn(C)c3)cc(-c3nccs3)nc12
4. CCOc1ncccc1-c1cc(NCc2cncc(OC)c2)c2c(n1)c(C)nn2C(C)C

1: 8.1; 2: 100; 3: 12; 4: 2.1

====

Please provide measured IC50 for the entries that follow.
target: UniProtKB Q01064; experiment: PDE1 inhibition assay (PDE1B); type: biochemical; conditions: PDE1B, IC50 (nM), 15 nM tritium labelled cAMP, 1 hr at room temperature, SPA beads
Give bare numbers, in nM.

Some solved cases for reference:
>  <COMPOUND>
[2H]C([2H])(C)Oc1ncccc1-c1cc(NCc2cccnc2OC)c2c(n1)c(C)nn2C(C)C

>  <IC50, nM>
0.77

$$$$
>  <COMPOUND>
CCOc1ncccc1-c1cc(NCc2cnn(C(F)F)c2)c2c(n1)c(C)nn2C(C)C

>  <IC50, nM>
5.9

$$$$

Please supply IC50 for each of the following items, keeping them in order.
1. CCOc1ncccc1-c1cc(NCc2ncn(C)n2)c2c(n1)c(C)nn2C(C)CC (single isomer, unassigned)
2. CCOc1ncccc1-c1cc(NCc2nnn(C)n2)c2c(n1)c(C)nn2C(C)CC (single isomer, unassigned)

0.47
0.31

====

Please provide measured pIC50 for the entries that follow.
target: PDE1B (Homo sapiens (Human)); test: PDE1 inhibition assay (PDE1B); type: biochemical; details: 15 nM tritium labelled cAMP, 1 hr at room temperature, SPA beads; read-out: PDE1B, IC50
Numbers only, as −log10 of the molar value.

>  <MOLECULE>
CCOc1ncccc1-c1cc(NCc2ncc(F)cn2)c2c(n1)c(C)nn2C(C)C [Example 83]

>  <pIC50>
8.92

$$$$
>  <MOLECULE>
CCOc1ncccc1-c1cc(NCc2nc[nH]n2)c2c(n1)c(C)nn2C(C)C [Example 98]

>  <pIC50>
9.24

$$$$
>  <MOLECULE>
CCOc1ncccc1-c1cc(NCc2cc[nH]n2)c2c(n1)c(C)nn2C(C)C [Example 39]

>  <pIC50>
9.37

$$$$
>  <MOLECULE>
Cc1nn(C(C)C)c2c(NCc3cnn(C)c3)cc(-c3ncnn3C)nc12 [Example 195]

>  <pIC50>
6.96

$$$$
>  <MOLECULE>
CCOc1ncccc1-c1cc(NCc2ccc(C)cc2)c2c(cnn2C(C)C)n1 [Example 24]

>  <pIC50>
6.80

$$$$
>  <MOLECULE>
Cc1nn(C(C)C)c2c(NCc3cnn(C)c3)cc(-c3ccc[nH]c3=O)nc12 [Example 177]

>  <pIC50>
7.70

$$$$
>  <MOLECULE>
COc1ccc(CNc2cc(-c3cccnc3N(C)C)nc3c(C)nn(C(C)C)c23)cc1 [Example 192]

>  <pIC50>
7.15

$$$$

Summary line: CCOc1ncccc1-c1cc(NCc2cccnc2OC)c2c(n1)c(C)nn2C1COC1 [Example 197] , PDE1B (Homo sapiens (Human)), reported pIC50 = 7.89

====

target: PDE1B (Homo sapiens (Human), UniProt Q01064); assay: PDE1 inhibition assay (PDE1B); type: biochemical; conditions: 15 nM tritium labelled cAMP, 1 hr at room temperature, SPA beads; read-out: PDE1B, IC50
Sequence (Q01064 whole entry): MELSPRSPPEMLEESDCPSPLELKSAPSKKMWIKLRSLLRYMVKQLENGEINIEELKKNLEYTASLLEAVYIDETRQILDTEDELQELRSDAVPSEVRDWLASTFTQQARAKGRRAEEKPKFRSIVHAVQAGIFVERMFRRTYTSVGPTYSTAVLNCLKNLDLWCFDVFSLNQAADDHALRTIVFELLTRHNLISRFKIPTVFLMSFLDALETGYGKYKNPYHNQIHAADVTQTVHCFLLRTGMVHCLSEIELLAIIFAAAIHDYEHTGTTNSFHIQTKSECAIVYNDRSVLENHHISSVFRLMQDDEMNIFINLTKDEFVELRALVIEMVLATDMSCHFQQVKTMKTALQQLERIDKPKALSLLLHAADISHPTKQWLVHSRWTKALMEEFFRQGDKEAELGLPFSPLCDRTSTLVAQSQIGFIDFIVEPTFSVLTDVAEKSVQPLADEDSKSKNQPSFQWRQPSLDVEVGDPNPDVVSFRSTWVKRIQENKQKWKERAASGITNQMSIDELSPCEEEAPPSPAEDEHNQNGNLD
Okay, here is how we bin by IC50: class A: < 0.5 nM; class B: ≥ 0.5 nM and < 3 nM; class C: ≥ 3 nM

Which IC50 category applies to CCOc1ncccc1-c1cc(CCc2cncc(OC)c2)c2c(n1)c(C)nn2C(C)C here?
class C

Which IC50 category applies to CCOc1ncccc1-c1cc(NCc2ccccn2)c2c(n1)c(C)nn2C(C)C here?
class A

Which IC50 category applies to CCOc1ncccc1-c1cc(NCc2cc[nH]n2)c2c(cnn2C(C)C)n1 here?
class C

Which IC50 category applies to CCCOc1ncccc1-c1cc(NCc2nnn(C)n2)c2c(n1)c(C)nn2C(C)C here?
class B

Which IC50 category applies to CCOc1ncccc1-c1cc(NCc2nc(C)no2)c2c(n1)c(C)nn2C(C)C here?
class B

Which IC50 category applies to CCOc1ncccc1-c1cc(NCc2cnn(C)c2)c2c(cnn2C)n1 here?
class C

Which IC50 category applies to CCOc1ncccc1-c1cc(NCc2cccnc2C(F)(F)F)c2c(n1)c(C)nn2C(C)C here?
class A

Which IC50 category applies to CCOc1ncccc1-c1cc(NCc2cc(C)n(C)n2)c2c(n1)c(C)nn2C(C)C here?
class A

Which IC50 category applies to CCOc1ncccc1-c1cc(NCc2cnccn2)c2c(n1)c(C)nn2C(C)C here?
class B

====

Please provide measured log10 IC50 for the entries that follow.
biological target: PDE1C (Homo sapiens (Human), UniProt Q14123); test: biochemical; assay type: biochemical
Sequence (Q14123 whole entry): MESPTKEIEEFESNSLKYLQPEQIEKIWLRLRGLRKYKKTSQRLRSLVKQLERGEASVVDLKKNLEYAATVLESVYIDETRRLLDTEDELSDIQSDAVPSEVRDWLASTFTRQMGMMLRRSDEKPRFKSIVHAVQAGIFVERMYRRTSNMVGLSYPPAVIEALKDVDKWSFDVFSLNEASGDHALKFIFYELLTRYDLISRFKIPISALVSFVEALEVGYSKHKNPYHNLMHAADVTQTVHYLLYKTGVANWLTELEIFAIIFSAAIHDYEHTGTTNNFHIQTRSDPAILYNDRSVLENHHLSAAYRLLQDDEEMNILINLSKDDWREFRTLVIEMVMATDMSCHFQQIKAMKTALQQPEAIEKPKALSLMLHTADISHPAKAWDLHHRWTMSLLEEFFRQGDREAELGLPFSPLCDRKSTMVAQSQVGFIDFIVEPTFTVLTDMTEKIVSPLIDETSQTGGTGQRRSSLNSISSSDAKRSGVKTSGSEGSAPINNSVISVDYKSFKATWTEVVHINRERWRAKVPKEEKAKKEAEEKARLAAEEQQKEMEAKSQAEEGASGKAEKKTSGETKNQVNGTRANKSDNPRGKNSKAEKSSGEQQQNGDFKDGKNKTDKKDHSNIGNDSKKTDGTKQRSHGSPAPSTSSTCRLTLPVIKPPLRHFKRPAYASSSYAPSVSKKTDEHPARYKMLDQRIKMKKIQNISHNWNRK
Remember, log10 of IC50, in nM.

Some solved cases for reference:
>  <COMPOUND>
CCOc1ncccc1-c1cc(NCc2ncn(C)n2)c2c(cnn2C(C)CC)n1 (single isomer, unassigned) [Example 141]

>  <NUMBER>
1.88

$$$$
>  <COMPOUND>
CCOc1ncccc1-c1cc(NCc2cc[nH]n2)c2c(n1)c(C)nn2C(C)CC (single isomer, unassigned) [Example 119]

>  <NUMBER>
1.46

$$$$
>  <COMPOUND>
[2H]C([2H])([2H])C([2H])([2H])Oc1ncccc1-c1cc(NCc2cccnc2OC)c2c(n1)c(C)nn2C(C)C [Example 181]

>  <NUMBER>
1.92

$$$$
>  <COMPOUND>
CCOc1ncccc1-c1cc(NCc2scnc2C)c2c(cnn2C(C)C)n1 [Example 71]

>  <NUMBER>
2.26

$$$$
>  <COMPOUND>
CCOc1ncccc1-c1cc(NCc2cc[nH]n2)c2c(cnn2C(C)CC)n1 (single isomer, unassigned) [Example 136]

>  <NUMBER>
2.00

$$$$

Please supply log10 IC50 for each of the following items, keeping them in order.
1. CCOc1ncccc1-c1cc(NCc2nnc(C)o2)c2c(cnn2C(C)CC)n1 (single isomer, unassigned) [Example 139]
2. [2H]C([2H])([2H])COc1ncccc1-c1cc(NCc2cccnc2OC)c2c(n1)c(C)nn2C(C)C [Example 182]

[2.72, 1.79]
